Give FVII inhib % for every item shown.
Test system: Factor VII
Test: Factor VII activity assay, in vivo liver delivery of FVII siRNA LNP
Design: species or system mouse
Conditions: dose 3 mg/kg siRNA i.v., ~48 h; lipid/no neutral lipid/CHOL/AVANTI 880150P 50/0/46/4, N/P 3.43
Give bare numbers, in %.

Consider the following illustrative entries.
molecule	readingUnit	FVII inhib %
CCCCC/C=C\C/C=C\CCCCCCCCOCC(CN1CCC(C)CC1)OCCOCCO[C@H]1CC[C@@]2(C)C(=CC[C@H]3[C@@H]4CC[C@H]([C@H](C)CCCC(C)C)[C@@]4(C)CC[C@@H]32)C1 (stereo partly shown)	%	84.5
CCCCC/C=C\C/C=C\CCCCCCCCOCC(CN1CCC2(CC1)OCCCO2)OCCOCCO[C@H]1CC[C@@]2(C)C(=CCC3C2CC[C@@]2(C)C3CC[C@@H]2[C@H](C)CCCC(C)C)C1 (stereo partly shown)	%	76.8
CCCCC/C=C\C/C=C\CCCCCCCCOCC(CN1CCOCCOCCOCC1)OCCOCCO[C@H]1CC[C@@]2(C)C(=CC[C@H]3[C@@H]4CC[C@H]([C@H](C)CCCC(C)C)[C@@]4(C)CC[C@@H]32)C1 (stereo partly shown)	%	12.4

# context switch: different molecule, same FVII inhib %
FVII inhib % lookup needed for CCCCC/C=C\C/C=C\CCCCCCCCOCC(CN1CCOCC1)OCCOCCO[C@H]1CC[C@@]2(C)C(=CC[C@H]3[C@@H]4CC[C@H]([C@H](C)CCCC(C)C)[C@@]4(C)CC[C@@H]32)C1 (stereo partly shown) , thanks.
92.3

* * *

Test system: PLK-1 mRNA in Hep3B tumors
Assay: Hep3B tumor study, PLK-1 mRNA KD in tumor tissue
Type: in vivo, human
Details: Hep3B tumor, mouse, i.v.; 1 × 1 mg siRNA/kg; LNP composition as in the source
Give PLK1 inhibition % for every item shown.
Give bare numbers, in %.

molecule	PLK1 inhibition %, %
CCCCCCCC/C=C\CCCCCCCCOCC(CN1CCOCC1)OCCOCCOC(=O)CCC(=O)O[C@H]1CC[C@@]2(C)C(=CC[C@H]3[C@@H]4CC[C@H]([C@H](C)CCCC(C)C)[C@@]4(C)CC[C@@H]32)C1 (some centres unmarked)	18

# context switch: different molecule, same PLK1 inhibition %
What measured PLK1 inhibition % is associated with CCCCC/C=C\C/C=C\CCCCCCCCOCC(CN1CCOCC1)OCCOCCNC(=O)O[C@H]1CC[C@@]2(C)C(=CC[C@H]3[C@@H]4CC[C@H]([C@H](C)CCCC(C)C)[C@@]4(C)CC[C@@H]32)C1 (some centres unmarked) on PLK-1 mRNA in Hep3B tumors?
36

* * *

System: PLK-1 mRNA in Hep3B tumors
Assay: Hep3B tumor study, PLK-1 mRNA KD in tumor tissue
Format: in vivo, human
Details: Hep3B tumor, mouse, i.v.; 1 × 1 mg siRNA/kg; LNP composition as in the source
measurementType: PLK1 inhibition % (%)
Numbers only, in %.

Consider the following illustrative entries.
molecule	measurementType	value
CCCCCCCC/C=C\CCCCCCCCOCC(CN1CCCCC1)OCCOC(=O)CCCC(=O)O[C@H]1CC[C@@]2(C)C(=CC[C@H]3[C@@H]4CC[C@H]([C@H](C)CCCC(C)C)[C@@]4(C)CC[C@@H]32)C1 (stereo partly drawn)	PLK1 inhibition %	25
CCCCCCCC/C=C\CCCCCCCCOCC(CN1CC[C@@H]2CCCC[C@H]2C1)OCCOCCO[C@H]1CC[C@@]2(C)C(=CC[C@H]3[C@@H]4CC[C@H]([C@H](C)CCCC(C)C)[C@@]4(C)CC[C@@H]32)C1 (stereo partly drawn)	PLK1 inhibition %	28

# context switch: different molecule, same PLK1 inhibition %
PLK1 inhibition % lookup needed for CCCCC/C=C\C/C=C\CCCCCCCCOCC(CN1CCCCC1)OCCCOC(=O)CCC(=O)O[C@H]1CC[C@@]2(C)C(=CC[C@H]3[C@@H]4CC[C@H]([C@H](C)CCCC(C)C)[C@@]4(C)CC[C@@H]32)C1 (stereo partly drawn) , thanks.
53

* * *

Assay: Particle size and PDI by dynamic light scattering (Malvern Zetasizer)
Format: physicochemical
Settings: LNP formulation with PLK1 siRNA; helper, neutral and stealth lipid, molar ratio and N/P as in the table
Assign class by Final size (nm): not lower than 90 nm means satisfied; lower than 90 nm means not satisfied.

Solved entries (count: 3):
compound	qualitativeLabel
CCCCC/C=C\C/C=C\CCCCCCCCCCOCC(CN1CCCC1C)OCCCOCCCO[C@H]1CC[C@@]2(C)C(=CC[C@H]3[C@@H]4CC[C@H]([C@H](C)CCCC(C)C)[C@@]4(C)CC[C@@H]32)C1 (some centres unmarked)	satisfied
CCCCC/C=C\C/C=C\CCCCCCCCOCC(CN1CCCCC1)OCCOCCO[C@H]1CC[C@@]2(C)C(=CCC3C2CC[C@@]2(C)C3CC[C@@H]2[C@H](C)CCCC(C)C)C1 (some centres unmarked)	not satisfied
CCCCCCCC/C=C\CCCCCCCCOCC(CN1CCCC(C)C1)OCCOCCO[C@H]1CC[C@@]2(C)C(=CC[C@H]3[C@@H]4CC[C@H]([C@H](C)CCCC(C)C)[C@@]4(C)CC[C@@H]32)C1 (some centres unmarked)	satisfied

--- query ---
Is Final size (nm) for CCCCC/C=C\C/C=C\CCCCCCCCOCC(Cn1ccnc1)OCCOCCO[C@H]1CC[C@@]2(C)C(=CCC3C2CC[C@@]2(C)C3CC[C@@H]2[C@H](C)CCCC(C)C)C1 (some centres unmarked) at or above 90 nm?
not satisfied

* * *

Test: pKa of the lipid by TNS fluorescence
Format: physicochemical
Settings: pKa
Give pKa for every item shown.
One number for each entry.

Consider the following illustrative entries.
compound	pKa
CCCCC/C=C\C/C=C\CCCCCCCCOCC(CN1CCSCC1)OCCOCCO[C@H]1CC[C@@]2(C)C(=CCC3C2CC[C@@]2(C)C3CC[C@@H]2[C@H](C)CCCC(C)C)C1 (stereo partly drawn)	4.8
CCCCC/C=C\C/C=C\CCCCCCCCOCC(CN1CCOCC1)OCCOCCNC(=O)O[C@H]1CC[C@@]2(C)C(=CC[C@H]3[C@@H]4CC[C@H]([C@H](C)CCCC(C)C)[C@@]4(C)CC[C@@H]32)C1 (stereo partly drawn)	5.56
CCCCC/C=C\C/C=C\CCCCCCCCOCC(CN1C[C@@H](C)O[C@@H](C)C1)OCCOCCO[C@H]1CC[C@@]2(C)C(=CC[C@H]3[C@@H]4CC[C@H]([C@H](C)CCCC(C)C)[C@@]4(C)CC[C@@H]32)C1 (stereo partly drawn)	4.88
CCCCC/C=C\C/C=C\CCCCCCCCOC[C@@H](CN1CCC[C@H]1C)OCCCOC(=O)CCC(=O)O[C@H]1CC[C@@]2(C)C(=CCC3C2CC[C@@]2(C)C3CC[C@@H]2[C@H](C)CCCC(C)C)C1 (stereo partly drawn)	6.07
CCCCC/C=C\C/C=C\CCCCCCCCCCOCC(CN1CCOCC1)OCCO[C@H]1CC[C@@]2(C)C(=CC[C@H]3[C@@H]4CC[C@H]([C@H](C)CCCC(C)C)[C@@]4(C)CC[C@@H]32)C1 (stereo partly drawn)	4.82

For every item in the list below, what is its measured pKa?
1. CCCCC/C=C\C/C=C\CCCCCCCCOCC(CN1CC[C@H]2OC(C)(C)O[C@H]2C1)OCCOCCO[C@H]1CC[C@@]2(C)C(=CCC3C2CC[C@@]2(C)C3CC[C@@H]2[C@H](C)CCCC(C)C)C1 (stereo partly drawn)
2. CCCCC/C=C\C/C=C\CCCCCCCCOCC(CN1CCC(C)(C)CC1)OCCOCCO[C@H]1CC[C@@]2(C)C(=CCC3C2CC[C@@]2(C)C3CC[C@@H]2[C@H](C)CCCC(C)C)C1 (stereo partly drawn)
3. CCCCC/C=C\C/C=C\CCCCCCCCOCC(CN1CCCCC1)OCCNC(=O)O[C@H]1CC[C@@]2(C)C(=CC[C@H]3[C@@H]4CC[C@H]([C@H](C)CCCC(C)C)[C@@]4(C)CC[C@@H]32)C1 (stereo partly drawn)
4. CCCCCCCC/C=C\CCCCCCCCOCC(CN1CCCC(C)C1)OCCOCCO[C@H]1CC[C@@]2(C)C(=CC[C@H]3[C@@H]4CC[C@H]([C@H](C)CCCC(C)C)[C@@]4(C)CC[C@@H]32)C1 (stereo partly drawn)

1. 4.89
2. 8.5
3. 6.31
4. 5.82

* * *

Assay: Particle size and PDI by dynamic light scattering (Malvern Zetasizer)
Format: physicochemical
Conditions: lipid/no neutral lipid/CHOL/GM-020 NOF 60/0/36/4, N/P 3
Hi! Could you tag entries with PDI below 0.1 as fulfilled, and those at or above as not fulfilled? Much appreciated.

Solved entries (count: 5):
compound	qualitativeLabel
CCCCC/C=C\C/C=C\CCCCCCCCCCOCC(CN1CCCCC1)OCCCOCCCO[C@H]1CC[C@@]2(C)C(=CC[C@H]3[C@@H]4CC[C@H]([C@H](C)CCCC(C)C)[C@@]4(C)CC[C@@H]32)C1 (stereo partly drawn) [E0096]	not fulfilled
CCCCC/C=C\C/C=C\CCCCCCCCOCC(CN1CCCCC1)OCCOCCOCCOCCO[C@H]1CC[C@@]2(C)C(=CC[C@H]3[C@@H]4CC[C@H]([C@H](C)CCCC(C)C)[C@@]4(C)CC[C@@H]32)C1 (stereo partly drawn) [E0079]	fulfilled
CCCCC/C=C\C/C=C\CCCCCCCCOCC(CN1CCCC1C)OCCOCCO[C@H]1CC[C@@]2(C)C(=CC[C@H]3[C@@H]4CC[C@H]([C@H](C)CCCC(C)C)[C@@]4(C)CC[C@@H]32)C1 (stereo partly drawn) [E0083]	not fulfilled
CCCCC/C=C\C/C=C\CCCCCCCCOCC(CN1CCC(OC)C1)OCCO[C@H]1CC[C@@]2(C)C(=CC[C@H]3[C@@H]4CC[C@H]([C@H](C)CCCC(C)C)[C@@]4(C)CC[C@@H]32)C1 (stereo partly drawn) [E0087]	not fulfilled
CCCCC/C=C\C/C=C\CCCCCCCCCCOCC(CN1CCCCC1)OCCOCCO[C@H]1CC[C@@]2(C)C(=CC[C@H]3[C@@H]4CC[C@H]([C@H](C)CCCC(C)C)[C@@]4(C)CC[C@@H]32)C1 (stereo partly drawn) [E0071]	not fulfilled

Strictly below 0.1 in PDI? CCCCCCCC/C=C\CCCCCCCCOCC(CN1CCC(OC)C1)OCCOCCO[C@H]1CC[C@@]2(C)C(=CC[C@H]3[C@@H]4CC[C@H]([C@H](C)CCCC(C)C)[C@@]4(C)CC[C@@H]32)C1 (stereo partly drawn) [E0064]
not fulfilled

Strictly below 0.1 in PDI? CCCCC/C=C\C/C=C\CCCCCCCCCCOCC(CN1CCCC1C)OCCCOCCCO[C@H]1CC[C@@]2(C)C(=CC[C@H]3[C@@H]4CC[C@H]([C@H](C)CCCC(C)C)[C@@]4(C)CC[C@@H]32)C1 (stereo partly drawn) [E0095]
fulfilled
